Property: S (number of isolates sensitive to the antibiotic); scope: individual molecules
- Tested on: Pseudomonas aeruginosa isolates
- TEST DESCRIPTION: Susceptibility of Pseudomonas aeruginosa urine isolates to antibiotics by the classical method VITEK2
- Type: cell-based
- RUN PARAMETERS: Pseudomonas aeruginosa isolates from urine of UTI patients, 121 isolates studied
Just the number.

entry_smiles=C[C@@H](O)[C@H]1C(=O)N2C(C(=O)O)=C(SCCN=CN)C[C@H]12 recorded_value=72
entry_smiles=C[C@@H](O)[C@H]1C(=O)N2C(C(=O)O)=C(S[C@@H]3CN[C@H](C(=O)N(C)C)C3)[C@H](C)[C@H]12 recorded_value=77
entry_smiles=CC(C)(O/N=C(\C(=O)N[C@@H]1C(=O)N2C(C(=O)[O-])=C(C[n+]3ccccc3)CS[C@H]12)c1csc(N)n1)C(=O)O recorded_value=78
entry_smiles=CCN1CCN(C(=O)N[C@@H](C(=O)N[C@@H]2C(=O)N3[C@@H]2SC(C)(C)[C@@H]3C(=O)O)c2ccccc2)C(=O)C1=O recorded_value=59
entry_smiles=C[C@H]1COc2c(N3CCN(C)CC3)c(F)cc3c(=O)c(C(=O)O)cn1c23 recorded_value=63

Here is the next item to consider.
Exercise: Look up S (number of isolates sensitive to the antibiotic) for this molecule: NC[C@H]1O[C@H](O[C@H]2[C@H](O)[C@@H](O[C@H]3O[C@H](CO)[C@@H](O)[C@H](N)[C@H]3O)[C@H](N)C[C@@H]2N)[C@H](N)C[C@@H]1O
Key: 79

---

- Tested on: Pseudomonas aeruginosa isolates
- TEST DESCRIPTION: Susceptibility of Pseudomonas aeruginosa urine isolates to antibiotics by the classical method VITEK2
- Format: cell-based
- RUN PARAMETERS: Pseudomonas aeruginosa isolates from urine of UTI patients, 121 isolates studied
- Description: The present inventors studied 1005 different bacterial isolates derived directly from urine samples of UTIs patients, as follows: These isolates were identified at a species level as well as their known susceptibility to most common used antibiotics, using the classical methods MALDI-TOF and VITEK2, respectively. […]
Flag rule - R (number of isolates resistant to the antibiotic) less than 20 flags satisfied; the remaining entries get not satisfied.

molecule="NC[C@H]1O[C@H](O[C@H]2[C@H](O)[C@@H](O[C@H]3O[C@H](CO)[C@@H](O)[C@H](N)[C@H]3O)[C@H](N)C[C@@H]2N)[C@H](N)C[C@@H]1O [Tobramycin]" assigned_label=satisfied
molecule="C[C@H]1COc2c(N3CCN(C)CC3)c(F)cc3c(=O)c(C(=O)O)cn1c23 [Levofloxacin]" assigned_label="not satisfied"
molecule="CC(C)(O/N=C(\\C(=O)N[C@@H]1C(=O)N2C(C(=O)[O-])=C(C[n+]3ccccc3)CS[C@H]12)c1csc(N)n1)C(=O)O [Ceftazidime]" assigned_label=satisfied
molecule="C[C@@H](O)[C@H]1C(=O)N2C(C(=O)O)=C(SCCN=CN)C[C@H]12 [Imipenem]" assigned_label=satisfied

Below: the item to evaluate.
Exercise: Quick check: R (number of isolates resistant to the antibiotic) of CCN1CCN(C(=O)N[C@@H](C(=O)N[C@@H]2C(=O)N3[C@@H]2SC(C)(C)[C@@H]3C(=O)O)c2ccccc2)C(=O)C1=O [Piperacillin] under 20?
Key: not satisfied

Source of measurements: patent US20230386662A1
